In what follows, each item is paired with its pKi for 5-hydroxytryptamine receptor 1A (Homo sapiens).
Entry type: numeric. Quantity: pKi, the -log10 of concentration in molar units.

Illustrative cases are given below, each with its answer.
CN1CCC(c2c[nH]c3ccc(NC(=O)c4ccccn4)nc23)CC1; 7.39
CN1CCC(c2c[nH]c3ccc(NC(=O)c4ccc(C#N)cc4)nc23)CC1; 7.51
CC(=O)Nc1ccc2[nH]cc(C3CCN(C)CC3)c2n1; 6.21
CC(=O)Nc1ccc2[nH]cc(C3CCN(C)CC3)c2c1; 7.17
CN1CCC(c2c[nH]c3cnc(NC(=O)c4ccc(F)cc4)nc23)CC1; 6.70

Give pKi (5-hydroxytryptamine receptor 1A (Homo sapiens)) of the following compound: "CN1CCC(c2c[nH]c3ccc(NC(=O)c4cccc([N+](=O)[O-])c4)nc23)CC1"
6.89

Give pKi (5-hydroxytryptamine receptor 1A (Homo sapiens)) of the following compound: "CN1CCC(c2c[nH]c3cnc(NC(=O)c4ccc(F)cc4)cc23)CC1"
7.77

Give pKi (5-hydroxytryptamine receptor 1A (Homo sapiens)) of the following compound: "CN1CCC(c2c[nH]c3ccc(NC(=O)c4ccc(Cl)cc4Cl)nc23)CC1"
8.29

Give pKi (5-hydroxytryptamine receptor 1A (Homo sapiens)) of the following compound: "Cc1cccc(C(=O)Nc2ccc3[nH]cc(C4CCN(C)CC4)c3n2)c1"
7.00

Give pKi (5-hydroxytryptamine receptor 1A (Homo sapiens)) of the following compound: "CN1CCC(c2c[nH]c3ccc(NC(=O)c4ccc(F)cc4)nc23)CC1"
7.25

====

In what follows, each item is paired with its Ki for 5-hydroxytryptamine receptor 1B (Homo sapiens).

Illustrative cases are given below, each with its answer.
CN1CCC(c2c[nH]c3ccc(NC(=O)c4cccc([N+](=O)[O-])c4)nc23)CC1; 390 nM
CN1CCC(c2c[nH]c3ccc(NC(=O)c4ccc(C#N)cc4)nc23)CC1; 310 nM

Give Ki (5-hydroxytryptamine receptor 1B (Homo sapiens)) of the following molecule: "CN1CCC(c2c[nH]c3ccc(NC(=O)Nc4ccc(F)cc4)nc23)CC1"
3.2 nM

====

In what follows, each item is paired with its pKi for 5-hydroxytryptamine receptor 1F (Homo sapiens, UniProt P30939).
Entry type: numeric. Quantity: pKi, the -log10 of concentration in molar units.

Illustrative cases are given below, each with its answer.
CCN1CC=C(c2c[nH]c3ccc(NC(=O)c4ccc(F)cc4)nc23)CC1; 7.60
COc1ccc2[nH]cc(C3CCN(C)CC3)c2n1; 7.64
CCCCC(=O)Nc1ccc2[nH]cc(C3CCN(C)CC3)c2n1; 7.85

Give pKi (5-hydroxytryptamine receptor 1F (Homo sapiens, UniProt P30939)) of the following compound: "CN1CCC(c2c[nH]c3ccc(OS(C)(=O)=O)nc23)CC1"
8.33

Give pKi (5-hydroxytryptamine receptor 1F (Homo sapiens, UniProt P30939)) of the following compound: "CCCN1CCC(c2c[nH]c3ccc(NC(=O)c4ccc(F)cc4)nc23)CC1"
7.74

Give pKi (5-hydroxytryptamine receptor 1F (Homo sapiens, UniProt P30939)) of the following compound: "CCC(=O)Nc1ccc2[nH]cc(C3CCN(C)CC3)c2n1"
8.26

Give pKi (5-hydroxytryptamine receptor 1F (Homo sapiens, UniProt P30939)) of the following compound: "CCCCN1CCC(c2c[nH]c3ccc(NC(=O)c4ccc(F)cc4)nc23)CC1"
7.85

Give pKi (5-hydroxytryptamine receptor 1F (Homo sapiens, UniProt P30939)) of the following compound: "Cc1ccc(C(=O)Nc2ccc3[nH]cc(C4CCN(C)CC4)c3n2)cc1"
7.92

Give pKi (5-hydroxytryptamine receptor 1F (Homo sapiens, UniProt P30939)) of the following compound: "COc1cccc(C(=O)Nc2ccc3[nH]cc(C4CCN(C)CC4)c3n2)c1"
7.80

Measured values drawn from ChEMBL document CHEMBL1145835 for this set.
